Test system: HCT-116 colon
Assay: NCI-60 one-dose screen, 48 h (100 = growth as untreated, 0 = no growth, -100 = all killed)
Conditions: 10 µM unless noted
This is part of a sample that, as a whole, favours compounds with a hit. Of some 83,000 tested, about 20% had one in any assay.
result-type: growth (%)
One number for each entry, in %.

Solved entries:
COc1ccc(C2C3=C(COC3=O)N(CCO)c3cc4c(cc32)CCC4)cc1 (configuration not stated)    33.5
O=C(CN1C(=O)/C(=C\c2ccc(Cl)cc2)SC1=S)Nc1ncc(Cc2ccc(Cl)cc2)s1    107
CC(C)CCNCC(O)Cn1c2ccccc2c2ccccc21 (configuration not stated)    4

Could I get growth for every one of these entries?
1. O=c1oc2ccc(-c3ccc(F)cc3F)cc2c(=O)n1-c1ccc(Cl)c(C(F)(F)F)c1
2. O=c1oc2ccc(F)cc2c(=O)n1-c1ccc(Cl)cc1F
3. COc1ccc(/C=C/C(=O)c2c(C)nc3ccccc3c2/C=C/c2ccccc2)c(OC)c1
4. CCC1=C[C@]2(C3CC(=O)N(c4ccccc4)C3=O)CC(C(C)(C)C)C[C@@H]2[C@@H]2C(=O)N(c3ccccc3)C(=O)[C@H]12 (some centres not stated)
5. COc1cc(C=C2C(=O)N(C)C(=O)N(C)C2=O)cc(CN2CCCCC2)c1O

Result block:
6.47
3.98
51.5
68.1
100

Report growth for every entry below.
1. O=C1/C(=C\c2ccc[nH]2)c2ccccc2N1c1ccccc1
2. COc1ccc(-c2cn3c(C(=O)Nc4ccccc4Cl)c(-c4ccccc4)c4c3n2CCCC4)cc1
3. CNCCNc1nc2ccccc2c2c(=O)c3cc(F)ccc3sc12
4. Oc1c(C(Nc2ccccn2)c2cccc(Oc3ccccc3)c2)ccc2cccnc12 (configuration not stated)
5. CCCCN1CCN(c2ccc3nc(-c4ccc5nc(-c6ccc(OC)c(OC)c6)[nH]c5c4)[nH]c3c2)CC1
6. COc1cc(C2C3=C(COC3=O)N(CCO)c3cc4c(cc32)CCC4)cc(OC)c1O (configuration not stated)
7. CCOC(=O)c1c2c(n3cccc(Cl)c13)C(=O)c1ncccc1C2=O

Result block:
95.1
73.2
0.271
-85.3
-80.2
8.94
8.41

Quick request: growth for each listed item, please.
1. CCOC(=O)c1sc(-c2ccc(OS(=O)(=O)c3cccs3)c(C=O)c2)nc1C
2. Cc1ccc(C(=O)c2oc3ccc4c(C)cc(=O)oc4c3c2C)cc1

Result block:
1: 2.95; 2: 21.7

Fill in growth for each of the 4 molecules listed.
1. CN1C(=O)N(C)C2(c3ccccc3)n3c(s/c(=C\c4ccccc4)c3=O)=NNC12c1ccccc1 (configuration not stated)
2. O=C(c1ccccc1)N(C(=S)NCCc1ccc(Cl)cc1)c1ccccc1
3. CCOc1cccc(/C=N\Nc2nc(=O)cc(C(=O)OC)s2)c1O
4. CC/C=C\C[C@H](O)C/C=C1/C(=O)C=C[C@@H]1C/C=C\CCCC(=O)OCCS(=O)(=O)c1ccccc1

Result block:
[88.3, 62.2, 22, -23]

I'm hoping you can list growth for every molecule here, please.
1. Clc1ccc(Nc2nnc(-c3ccc4c(c3)OCO4)o2)cc1
2. NC1C(N)C(N)C1N (configuration not stated)

Result block:
1: 96.7; 2: 103

Batch: growth for all items listed.
1. CN1C(=O)N(C)C2C1NN=c1s/c(=C\c3c[nH]c4ccccc34)c(=O)n12 (configuration not stated)
2. Nc1nc2c(ncn2[C@@H]2O[C@H](CS)[C@@H](O)[C@H]2O)c(=O)[nH]1
3. Nc1ccc(-c2ccc(-c3ccccc3N)c3[nH]c4ccccc4c23)cc1
4. c1ccc(CNc2nc(Nc3ccccc3)nc3ccccc23)cc1
5. COc1cc2cc3c(=O)n4c(cc5cc(OC)ncc54)c(=O)n3c2cn1
6. O=C1/C=C/[C@@H](O)[C@@H]2C[C@@H](O)C[C@H]2/C=C/CCCCO1
7. O=c1oc2ccc(F)cc2c(=O)n1-c1ccc(I)cc1F
8. CCOC(=O)C1(Cc2ccccc2)CCN(Cc2cccc(OC)c2O)CC1

Result block:
1: 5.95; 2: 102; 3: 22.6; 4: 58.2; 5: 100; 6: 0.136; 7: 7.36; 8: 21

Record growth for all entries; do not skip any.
1. CCOC(=O)CSc1c(-c2ccccc2)c2cc(Cl)ccc2[nH]c1=O
2. O=C(Nc1ccc(N2CCNCC2)cn1)c1[nH]ncc1Nc1ncnc2sccc12
3. CN(C)c1ccc(/C=C/c2ccnc3c(O)cccc23)cc1
4. CCOc1cc2c(cc1OCC)C(c1cc(C)c(O)c(C)c1)NCC2 (configuration not stated)
5. COc1cc(C(=O)O/N=C(\N)Cc2cccc3ccccc23)cc(OC)c1OC
6. FC(F)(F)c1cccc(CNC2CCN(CCc3ccccc3)CC2)c1
7. Nc1ccc(C2c3ccccc3Oc3ccccc32)cc1

Result block:
1: 92.1; 2: -68.2; 3: 18.6; 4: 94.2; 5: -71.4; 6: 31.3; 7: 97.8

Provide growth values for the following items, in order.
1. O=C1c2cc(Br)ccc2Oc2cc([N+](=O)[O-])ccc2N1c1ccc(I)cc1F
2. CCOC(=O)C1=CN(C)C=C(C(=O)OCC)C1c1cc(Br)c(OCC)c(OC)c1
3. COC(=O)c1c2c(c(C)[n+]([O-])c1C)C(=O)C(NCc1ccc(F)c(F)c1)=CC2=O
4. Cc1c(-c2noc(-c3ccc([N+](=O)[O-])cc3)n2)no[n+]1[O-]

Result block:
1: 87.5; 2: 43.9; 3: 1.74; 4: 87.5
